# protocol description: S. cerevisiae RM11-1a growth modifiers, primary screen, strain RM11-1a, OD600, basal, 24 h (AID 1177);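 note: cultures grown under basal conditions with no added stressor; test concentration not given here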
# test settings: OD600, 24 h, higher = more signal, called active from +8 up or from −8 down
Active and inactive are the calls of the source.
For each record, write down the corresponding z-score.

Request: Assign z-score to the following record: CNS(=O)(=O)c1ccc(C)cc1
Response: -1.4 (inactive)

Request: Quote z-score reported for Cc1ccccc1C(O)C1C=CC2C(=O)N(c3ccccc3)C(=O)C2N1Nc1ccc(C(C)C)cc1 (stereo not given) please.
Response: 1.93 (inactive)

Request: Annotate the compound COc1ccc(CCNC(=O)[C@@]2(Sc3ccc(C)cc3)CC(=O)N(C3Cc4ccccc4C3)[C@@H]2c2ccc(CO)cc2I)cc1 with its measured z-score.
Response: 1 (inactive)

Request: Dear colleague, please send me the reported z-score for O=C1C2C=CC(C(O)c3cccc4ccccc34)N(Nc3ccccc3F)C2C(=O)N1c1ccccc1 (stereo not given) when you can.
Response: 0.0054 (inactive)

Request: Given the compound C=CCNC(=O)[C@H]1[C@@H]2C(=O)O[C@@H](c3ccccc3)[C@@H](c3ccccc3)N2[C@@H](c2ccccc2OCCO)[C@]12C(=O)Nc1ccc(C#CCC(C(=O)OC)C(=O)OC)cc12 , write its reported z-score.
Response: 3.57 (inactive)
